Target: rat intestinal trehalase (Rattus norvegicus)
Sequence (G3V7Q9 21-553): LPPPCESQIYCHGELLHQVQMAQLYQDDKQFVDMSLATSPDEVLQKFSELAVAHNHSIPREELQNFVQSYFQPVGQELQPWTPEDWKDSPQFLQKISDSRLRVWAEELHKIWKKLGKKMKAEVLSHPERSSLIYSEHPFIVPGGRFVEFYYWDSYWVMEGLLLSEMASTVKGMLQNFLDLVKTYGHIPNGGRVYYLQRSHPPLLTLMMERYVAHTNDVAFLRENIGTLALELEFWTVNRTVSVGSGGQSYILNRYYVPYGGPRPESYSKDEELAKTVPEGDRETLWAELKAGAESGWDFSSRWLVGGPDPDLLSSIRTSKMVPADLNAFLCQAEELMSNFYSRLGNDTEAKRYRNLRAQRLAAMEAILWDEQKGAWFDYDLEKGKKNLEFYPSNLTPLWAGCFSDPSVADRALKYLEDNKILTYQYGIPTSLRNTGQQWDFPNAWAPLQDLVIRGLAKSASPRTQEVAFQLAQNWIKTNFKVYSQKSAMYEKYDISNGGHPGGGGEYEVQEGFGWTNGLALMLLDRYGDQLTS
Assay: Rat intestinal glycosidases: trehalase
Type: biochemical
Details: rat intestinal brush border membranes
pIC50: −log10 of the molar value.
MEASURED ATTRIBUTE: pIC50

// pIC50 value for `O=C(O)[C@H]1NC[C@H](O)[C@@H](O)[C@@H]1O` : < 3.00

* * *

Target: α-D-glucosidase (Rice) (Oryza sativa subsp. japonica, UniProt Q653V7)
Construct: purchased Sigma
Sequence (Q653V7 34-885): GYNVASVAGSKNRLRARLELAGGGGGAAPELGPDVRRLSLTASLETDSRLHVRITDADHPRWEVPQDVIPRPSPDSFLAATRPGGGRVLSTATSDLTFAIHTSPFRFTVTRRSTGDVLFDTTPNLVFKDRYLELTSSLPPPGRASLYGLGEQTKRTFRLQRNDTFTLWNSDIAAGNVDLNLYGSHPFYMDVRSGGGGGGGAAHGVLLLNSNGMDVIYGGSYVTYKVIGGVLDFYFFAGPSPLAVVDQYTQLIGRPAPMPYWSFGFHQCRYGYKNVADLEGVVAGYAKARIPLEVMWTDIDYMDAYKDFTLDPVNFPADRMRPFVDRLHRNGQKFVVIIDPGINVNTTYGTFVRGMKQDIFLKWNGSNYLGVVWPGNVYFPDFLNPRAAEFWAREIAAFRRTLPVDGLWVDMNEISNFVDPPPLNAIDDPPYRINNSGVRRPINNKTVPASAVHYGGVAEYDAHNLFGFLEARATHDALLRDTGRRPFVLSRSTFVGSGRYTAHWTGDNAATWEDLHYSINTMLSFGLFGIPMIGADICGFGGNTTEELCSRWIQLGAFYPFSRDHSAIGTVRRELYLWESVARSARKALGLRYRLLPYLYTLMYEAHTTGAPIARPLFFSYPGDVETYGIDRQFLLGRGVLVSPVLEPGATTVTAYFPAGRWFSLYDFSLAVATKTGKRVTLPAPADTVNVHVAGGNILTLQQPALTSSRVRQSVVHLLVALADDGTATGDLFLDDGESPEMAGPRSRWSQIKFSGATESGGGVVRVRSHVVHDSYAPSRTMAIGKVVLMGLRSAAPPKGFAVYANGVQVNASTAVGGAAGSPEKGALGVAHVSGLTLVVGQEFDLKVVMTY
Experiment: Glycosidase inhibition: α-D-glucosidase (Rice)
Format: biochemical
Settings: read-out: IC50, α-D-glucosidase (Rice)
Hi there, I'd appreciate the recorded IC50 for every entry that follows.
One number for each entry, in nM.

These recorded examples may help you get a feel for the data.
COMPOUND: O=C(O)CN1C[C@H](O)[C@@H](O)[C@H](O)[C@H]1CO [Compound G6]
IC50, nM: 1000
--
COMPOUND: O=C(O)CCN1C[C@H](O)[C@@H](O)[C@H](O)[C@H]1CO [Compound T1]
IC50, nM: 2400

// IC50 value for O=C(O)[C@@H]1[C@@H](O)[C@H](O)[C@@H](O)CN1CCO [Compound T3] : 259000

* * *

Target: β-Glucuronidase Bovine liver (Bos taurus)
Construct: The assay involved the use of Bovine liver β-glucuronidase; purchased Sigma; host or cells: bovine liver
Sequence (A3KMY8 1-652): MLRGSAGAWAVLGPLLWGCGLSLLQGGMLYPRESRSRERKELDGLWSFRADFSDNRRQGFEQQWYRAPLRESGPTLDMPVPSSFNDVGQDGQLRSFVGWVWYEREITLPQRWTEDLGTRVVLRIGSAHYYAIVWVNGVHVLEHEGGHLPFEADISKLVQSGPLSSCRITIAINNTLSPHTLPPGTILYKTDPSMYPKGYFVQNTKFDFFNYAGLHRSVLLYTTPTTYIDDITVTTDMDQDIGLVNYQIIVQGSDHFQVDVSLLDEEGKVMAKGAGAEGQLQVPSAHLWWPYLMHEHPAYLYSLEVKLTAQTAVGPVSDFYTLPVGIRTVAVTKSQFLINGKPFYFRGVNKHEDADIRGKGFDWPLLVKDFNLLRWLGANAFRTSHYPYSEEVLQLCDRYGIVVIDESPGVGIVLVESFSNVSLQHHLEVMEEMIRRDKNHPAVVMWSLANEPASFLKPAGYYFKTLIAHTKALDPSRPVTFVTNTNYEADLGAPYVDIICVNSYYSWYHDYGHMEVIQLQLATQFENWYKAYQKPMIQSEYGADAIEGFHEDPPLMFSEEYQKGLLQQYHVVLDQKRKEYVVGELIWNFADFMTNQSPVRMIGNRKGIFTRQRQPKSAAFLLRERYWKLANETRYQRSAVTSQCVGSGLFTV
Experiment: Glycosidase inhibition: β-Glucuronidase Bovine liver;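 note: bovine liver β-glucuronidase acting on p-nitrophenyl β-D-glucuronide substrate in citric acid/disodium hydrogen phosphate buffer, pH 5.0, 27 °C, mean of triplicate runs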
Type: biochemical
Details: approximately 0.8 mM
Hi there, I'd appreciate the recorded % Glucuronidase inhibition at 0.8 mM Bovine Liver for every entry that follows.
Answers are plain numbers, in %.

These recorded examples may help you get a feel for the data.
COMPOUND: CCC1CC(CC2CC(CCCC(C)C)[C@@H](CC)C(C)[C@H]2C)C(C)C(C)C1C (stereo partly drawn)
ASSAYED SYSTEM: β-Glucuronidase Bovine liver (Bos taurus)
UNIT INFO: %
READING: 3.9
--
COMPOUND: O=C(O)[C@H]1NC[C@H](O)[C@@H](O)[C@@H]1O [drawing 22]
ASSAYED SYSTEM: β-Glucuronidase Bovine liver (Bos taurus)
UNIT INFO: %
READING: 88.9
--
COMPOUND: CN1C[C@H](O)C[C@H]1C(=O)O
ASSAYED SYSTEM: β-Glucuronidase Bovine liver (Bos taurus)
UNIT INFO: %
READING: −3.7

# return % Glucuronidase inhibition at 0.8 mM Bovine Liver for each item in the list
1. CC(CC(N)C(=O)O)C(=O)O (stereo not drawn)
2. O=C(O)CN1C[C@@H](O)[C@@H](O)C1[C@@H](O)CO (stereo partly drawn)

A.
1. −1.6
2. 4

* * *

Endpoint: pIC50. System: rabbit intestinal sucrase (Oryctolagus cuniculus). Items follow.
Sequence (P07768 whole entry): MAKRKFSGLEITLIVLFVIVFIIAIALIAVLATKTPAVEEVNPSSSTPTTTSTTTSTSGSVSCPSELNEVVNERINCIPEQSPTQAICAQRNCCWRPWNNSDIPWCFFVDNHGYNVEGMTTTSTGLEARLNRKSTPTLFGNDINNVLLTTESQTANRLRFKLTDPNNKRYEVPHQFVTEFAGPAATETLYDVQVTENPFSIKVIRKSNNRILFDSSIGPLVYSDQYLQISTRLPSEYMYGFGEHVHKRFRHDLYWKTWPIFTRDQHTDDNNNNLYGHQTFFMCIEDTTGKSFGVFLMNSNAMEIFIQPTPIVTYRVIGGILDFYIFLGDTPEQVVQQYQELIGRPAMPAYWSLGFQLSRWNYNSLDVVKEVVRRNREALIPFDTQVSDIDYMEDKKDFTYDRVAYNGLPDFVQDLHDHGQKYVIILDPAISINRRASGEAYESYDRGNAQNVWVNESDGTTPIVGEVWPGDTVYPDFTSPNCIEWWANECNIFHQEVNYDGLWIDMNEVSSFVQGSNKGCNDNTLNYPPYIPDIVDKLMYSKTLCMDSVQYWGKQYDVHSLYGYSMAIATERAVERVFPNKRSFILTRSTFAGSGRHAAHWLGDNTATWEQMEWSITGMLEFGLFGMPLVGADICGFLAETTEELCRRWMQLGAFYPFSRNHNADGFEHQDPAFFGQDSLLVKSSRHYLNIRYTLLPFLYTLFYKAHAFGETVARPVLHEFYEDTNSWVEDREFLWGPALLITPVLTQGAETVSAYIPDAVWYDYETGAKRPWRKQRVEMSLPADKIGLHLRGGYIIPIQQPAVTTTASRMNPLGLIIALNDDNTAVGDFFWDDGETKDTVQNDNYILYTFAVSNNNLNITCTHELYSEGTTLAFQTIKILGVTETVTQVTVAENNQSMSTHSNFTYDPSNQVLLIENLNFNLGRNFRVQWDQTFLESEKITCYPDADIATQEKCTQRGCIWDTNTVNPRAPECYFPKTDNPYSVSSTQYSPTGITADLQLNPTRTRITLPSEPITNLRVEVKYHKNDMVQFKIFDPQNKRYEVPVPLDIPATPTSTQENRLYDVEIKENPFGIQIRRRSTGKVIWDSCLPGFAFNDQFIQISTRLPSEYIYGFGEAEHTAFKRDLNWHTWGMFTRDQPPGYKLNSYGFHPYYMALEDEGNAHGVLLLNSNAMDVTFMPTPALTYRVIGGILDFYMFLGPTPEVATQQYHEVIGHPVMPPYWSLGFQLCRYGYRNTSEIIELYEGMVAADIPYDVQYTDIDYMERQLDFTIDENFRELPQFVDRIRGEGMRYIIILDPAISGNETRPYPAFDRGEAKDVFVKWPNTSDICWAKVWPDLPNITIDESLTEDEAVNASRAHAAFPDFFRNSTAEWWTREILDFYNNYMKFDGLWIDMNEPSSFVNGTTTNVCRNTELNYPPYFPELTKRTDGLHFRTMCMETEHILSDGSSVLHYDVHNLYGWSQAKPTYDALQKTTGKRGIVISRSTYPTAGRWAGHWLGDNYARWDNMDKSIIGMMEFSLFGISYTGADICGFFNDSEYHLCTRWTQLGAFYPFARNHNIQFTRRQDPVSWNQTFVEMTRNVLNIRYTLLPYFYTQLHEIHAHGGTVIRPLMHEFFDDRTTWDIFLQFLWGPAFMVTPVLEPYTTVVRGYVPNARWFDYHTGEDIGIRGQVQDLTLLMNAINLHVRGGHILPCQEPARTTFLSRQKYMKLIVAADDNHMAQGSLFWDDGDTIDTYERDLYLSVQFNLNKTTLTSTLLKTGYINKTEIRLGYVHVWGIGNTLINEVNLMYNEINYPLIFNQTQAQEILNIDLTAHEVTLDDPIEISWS
Give bare numbers, as −log10 of the molar value.

These recorded examples may help you get a feel for the data.
MOLECULE: CCCCN1C[C@H](O)[C@@H](O)[C@H](O)[C@H]1CO [Zavesca, N-butyl-DNJ, reference compound]
READING: 6.66

MOLECULE: OC[C@H]1NC[C@H](O)[C@@H](O)[C@@H]1O [DNJ, 1-deoxynojirimycin, reference compound]
READING: 7.05

// pIC50 value for `O=C(O)CCN1C[C@H](O)[C@@H](O)[C@H](O)[C@H]1CO` : 5.21

* * *

Endpoint: IC50. System: UniProt P07768. Items follow.
Give bare numbers, in µM.

COMPOUND: CCCCN1C[C@H](O)[C@@H](O)[C@H](O)[C@H]1CO [Zavesca, N-butyl-DNJ, reference compound]
UNIT INFO: µM
IC50: 0.19

Then there is this compound:
// IC50 value for OC[C@H]1NC[C@H](O)[C@@H](O)[C@@H]1O [DNJ, 1-deoxynojirimycin, reference compound] : 0.02
